target: Kv1.3 (Homo sapiens, UniProt P22001); construct: expressed in transfected cells; experiment: Patch clamp assay (QPatch), Kv1.3; format: cell-based; conditions: CHO cells stably expressing human Kv1.3, read-out: Potency IC50, Kv1.3
Sequence (P22001 whole entry): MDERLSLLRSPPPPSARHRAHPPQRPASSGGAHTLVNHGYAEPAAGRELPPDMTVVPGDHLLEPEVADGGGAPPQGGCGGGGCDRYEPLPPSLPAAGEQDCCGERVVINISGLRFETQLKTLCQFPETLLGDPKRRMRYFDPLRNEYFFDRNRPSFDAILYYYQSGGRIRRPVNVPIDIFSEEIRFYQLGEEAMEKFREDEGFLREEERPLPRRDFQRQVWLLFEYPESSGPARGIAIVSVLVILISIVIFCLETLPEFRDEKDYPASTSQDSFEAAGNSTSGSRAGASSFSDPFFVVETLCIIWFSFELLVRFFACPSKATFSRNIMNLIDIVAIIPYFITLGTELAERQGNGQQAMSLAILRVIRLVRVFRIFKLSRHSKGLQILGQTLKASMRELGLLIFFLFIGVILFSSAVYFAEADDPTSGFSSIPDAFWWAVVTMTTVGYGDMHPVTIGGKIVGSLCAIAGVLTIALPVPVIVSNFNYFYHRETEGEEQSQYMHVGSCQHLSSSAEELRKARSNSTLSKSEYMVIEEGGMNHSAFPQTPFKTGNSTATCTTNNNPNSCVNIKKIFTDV
Listed here are substances together with their documented pIC50.
Lab note — pIC50 values are minus log10 of concentrations in M.

Consider the following illustrative entries.
{"columns": ["substance", "pIC50"],
 "data": [
  ["H-NMDMRC(1)SASVEC(2)KQLC(3)LKAIGSIFGKC(1)MNKKC(2)KC(3)YPR-NH2 [Peptide 19]", 9.62],
  ["H-NMDMRC(1)SASVEC(2)KQKC(3)LKAIESIFGKC(1)MNKKC(2)KC(3)YPR-NH2 [Peptide 23]", 9.54],
  ["H-C(1)SASVEC(2)KQKC(3)LKAIGSIFGKC(1)[Nle]NKKC(2)KC(3)YPR-NH2 [Peptide 108]", 9.37],
  ["H-[phosphotyrosyl][8-Amino-3,6-dioxaoctanoyl]RSCIDTIPKSRCTAFQCKHSMKYRLSFCRKTCGTC-NH2 [ShK-186, reference compound]", 10.02],
  ["H-NMDMRC(1)SASVEC(2)KQKC(3)LAAIGSIFGKC(1)MNKKC(2)KC(3)YPR-NH2 [Peptide 53]", 9.96]
]}

Query string: For the substance H-P[Nle]E[Nle]RC(1)SASVEC(2)KQKC(3)LAAIGSIFGKC(1)[Nle]NKKC(2)KC(3)YPR-NH2 [Peptide 101] , what pIC50 is on record?
Result string: 9.74

Query string: For the substance H-S[Nle]D[Nle]RC(1)SASVEC(2)AQKC(3)LAAIGSIFGKC(1)MNKKC(2)KC(3)YPR-NH2 [Peptide 82] , what pIC50 is on record?
Result string: 9.80

Query string: For the substance H-N[Nle]D[Nle]RC(1)SASKEC(2)KQKC(3)LKAIGSIFGKC(1)[Nle]NKKC(2)KC(3)YPR-NH2 [Peptide 64] , what pIC50 is on record?
Result string: 9.51

Query string: For the substance H-NMDMRC(1)SASVEC(2)KQKC(3)LKAIGSIFGKC(1)MNKKC(2)KC(3)YPR-OH [Peptide 3] , what pIC50 is on record?
Result string: 9.57

Query string: For the substance H-NMDMRC(1)SASVEC(2)KQKC(3)LKYIGSIFGKC(1)MNKKC(2)KC(3)YPR-NH2 [Peptide 56] , what pIC50 is on record?
Result string: 9.92

Query string: For the substance H-RC(1)SASVEC(2)KQKC(3)LKAIGSIFGKC(1)[Nle]NKKC(2)KC(3)YPR-NH2 [Peptide 111] , what pIC50 is on record?
Result string: 9.40

Query string: For the substance H-NMDMRC(1)SASVEC(2)KQKC(3)LKAIGSIFGKC(1)MNKKC(2)KC(3)YPRRRTA-NH2 [Peptide 24] , what pIC50 is on record?
Result string: 9.82

Query string: For the substance H-N[Nle]D[Nle]RC(1)SASVEC(2)KKKC(3)LKAIGSIFGKC(1)[Nle]NKKC(2)KC(3)YPR-NH2 [Peptide 46] , what pIC50 is on record?
Result string: 9.12

Query string: For the substance H-AAAISCVGSPECPPKCRAQGCKNGKCMNRKCKCYYC-NH2 [Vm24, reference compound] , what pIC50 is on record?
Result string: 9.82

Query string: For the substance H-S[Nle]D[Nle]RC(1)SASVEC(2)KQKC(3)LKAIGSIFGKC(1)MNKKC(2)RC(3)YPR-NH2 [Peptide 77] , what pIC50 is on record?
Result string: 9.89

Query string: For the substance H-P[Nle]E[Nle]RC(1)[2-Amino-3-guanidinopropionyl]ASVEC(2)KQKC(3)LAAIGSIFGKC(1)[Nle]NKKC(2)KC(3)YPR-OH [Peptide 91] , what pIC50 is on record?
Result string: 10.19

Query string: For the substance H-S[Nle]D[Nle]RC(1)SASVEC(2)GQKC(3)LKAIGSIFGKC(1)MNKKC(2)KC(3)YPR-NH2 [Peptide 73] , what pIC50 is on record?
Result string: 9.96

Query string: For the substance H-NMDMRC(1)SASVEC(2)KQKC(3)YKAIGSIFGKC(1)MNKKC(2)KC(3)YPR-NH2 [Peptide 51] , what pIC50 is on record?
Result string: 9.57

Provenance of the data: patent US20260325605A1
